Where do these numbers come from? They come from patent US12281125B2.

# System: mTORc1 signaling, pS6 (Ser240/244) in MEF TSCl−/− cells
# PROCEDURE SUMMARY: Cell-based assay for rapalog potency (pS6) in MEF TSCl−/− cells
# CONDITION SUMMARY: Mus musculus, 2 hours treatment, average from multiple assays
pIC50: −log10 of the molar value.
Label 1 when pIC50 is at or above 9; otherwise label -1.

Is it the case that "CO[C@@H]1C[C@H](C[C@@H](C)[C@@H]2CC[C@H](C)/C=C(\C)[C@@H](O)[C@@H](OC)C(=O)[C@H](C)C[C@H](C)/C=C/C=C/C=C(\C)[C@H](NS(=O)(=O)CC(C)C)C[C@@H]3CC[C@@H](C)[C@@](O)(O3)C(=O)C(=O)N3CCCC[C@H]3C(=O)O2)CC[C@H]1O" has pIC50 reaching or exceeding 9?
-1

Please check the record "CO[C@@H]1C[C@H](C[C@@H](C)[C@@H]2CC[C@H](C)/C=C(\C)[C@@H](O)[C@@H](OC)C(=O)[C@H](C)C[C@H](C)/C=C/C=C/C=C(\C)[C@@H](NS(=O)(=O)CCO)C[C@@H]3CC[C@@H](C)[C@@](O)(O3)C(=O)C(=O)N3CCCC[C@H]3C(=O)O2)CC[C@H]1O" and state if its pIC50 is at or above 9.
1

Field: next molecule
Tell me whether pIC50 is at least 9 here: "CO[C@@H]1C[C@H](C[C@@H](C)[C@@H]2CC[C@H](C)/C=C(\C)[C@@H](O)[C@@H](OC)C(=O)[C@H](C)C[C@H](C)/C=C/C=C/C=C(\C)[C@@H](NS(C)(=O)=O)C[C@@H]3CC[C@@H](C)[C@@](O)(O3)C(=O)C(=O)N3CCCC[C@H]3C(=O)O2)CC[C@@H]1n1cnnn1"
1

---

# Tested on: mTORc1 signaling, pS6 (Ser240/244) in MEF TSCl−/− cells
# PROCEDURE SUMMARY: Cell-based assay for rapalog potency (pS6) in MEF TSCl−/− cells
# CONDITION SUMMARY: Mus musculus, 2 hours treatment, average from multiple assays
# Lookup of reported pIC50 keyed by entry
Notebook: values listed as pIC50 are -log10 of the concentration (mol/L).

A selection of reference data follows.
Could you share what pIC50 was measured for "CCCS(=O)(=O)N[C@@H]1C[C@@H]2CC[C@@H](C)[C@@](O)(O2)C(=O)C(=O)N2CCCC[C@H]2C(=O)O[C@H]([C@H](C)C[C@@H]2CC[C@@H](O)[C@H](OC)C2)CC[C@H](C)/C=C(\C)[C@@H](O)[C@@H](OC)C(=O)[C@H](C)C[C@H](C)/C=C/C=C/C=C/1C" , tested on mTORc1 signaling, pS6 (Ser240/244) in MEF TSCl−/− cells?
7.89

Request: pIC50, test system mTORc1 signaling, pS6 (Ser240/244) in MEF TSCl−/− cells, entry "CO[C@@H]1C[C@H](C[C@@H](C)[C@@H]2CC[C@H](C)/C=C(\C)[C@@H](O)[C@@H](OC)C(=O)[C@H](C)C[C@H](C)/C=C/C=C/C=C(\C)[C@@H](NO)C[C@@H]3CC[C@@H](C)[C@@](O)(O3)C(=O)C(=O)N3CCCC[C@H]3C(=O)O2)CC[C@H]1O"
9.68

Kindly review the next compound as well.
Record lookup: for mTORc1 signaling, pS6 (Ser240/244) in MEF TSCl−/− cells, what pIC50 belongs to "CO[C@@H]1C[C@H](C[C@@H](C)[C@@H]2CC[C@H](C)/C=C(\C)[C@@H](O)[C@@H](OC)C(=O)[C@H](C)C[C@H](C)/C=C/C=C/C=C(\C)[C@H](N(O)C(=O)OC(C)(C)C)C[C@@H]3CC[C@@H](C)[C@@](O)(O3)C(=O)C(=O)N3CCCC[C@H]3C(=O)O2)CC[C@H]1O" ?
7.57

---

# Test system: mTORc1 signaling, pS6 (Ser240/244) in MEF TSCl−/− cells
# PROCEDURE SUMMARY: Cell-based assay for rapalog potency (pS6) in MEF TSCl−/− cells
# CONDITION SUMMARY: Mus musculus, 2 hours treatment, average from multiple assays
OBSERVED PROPERTY: pIC50
Field pIC50 (float): negative decimal logarithm of the concentration in molar.

Previously resolved entries follow.
Would you kindly share the measured pIC50 for "CO[C@@H]1C[C@H](C[C@@H](C)[C@@H]2CC[C@H](C)/C=C(\C)[C@@H](O)[C@@H](OC)C(=O)[C@H](C)C[C@H](C)/C=C/C=C/C=C(\C)[C@@H](NCCS(=O)(=O)O)C[C@@H]3CC[C@@H](C)[C@@](O)(O3)C(=O)C(=O)N3CCCC[C@H]3C(=O)O2)CC[C@H]1OCCO" ?
6.80

What value of pIC50 has been reported for the following compound? "CO[C@@H]1C[C@H](C[C@@H](C)[C@@H]2CC[C@H](C)/C=C(\C)[C@@H](O)[C@@H](OC)C(=O)[C@H](C)C[C@H](C)/C=C/C=C/C=C(\C)[C@@H](NS(=O)(=O)C3CCC3)C[C@@H]3CC[C@@H](C)[C@@](O)(O3)C(=O)C(=O)N3CCCC[C@H]3C(=O)O2)CC[C@H]1O"
8.28

Can you share its pIC50? I mean this compound: "CO[C@@H]1C[C@H](C[C@@H](C)[C@@H]2CC[C@H](C)/C=C(\C)[C@@H](O)[C@@H](OC)C(=O)[C@H](C)C[C@H](C)/C=C/C=C/C=C(\C)[C@@H](N)C[C@@H]3CC[C@@H](C)[C@@](O)(O3)C(=O)C(=O)N3CCCC[C@H]3C(=O)O2)CC[C@H]1O"
9.46

Name the recorded pIC50 for "CO[C@@H]1C[C@H](C[C@@H](C)[C@@H]2CC[C@H](C)/C=C(\C)[C@@H](O)[C@@H](OC)C(=O)[C@H](C)C[C@H](C)/C=C/C=C/C=C(\C)[C@@H](NS(C)(=O)=O)C[C@@H]3CC[C@@H](C)[C@@](O)(O3)C(=O)C(=O)N3CCCC[C@H]3C(=O)O2)CC[C@H]1OP(C)(C)=O" .
9.28

# get_value(readout='pIC50', item= "CO[C@@H]1C[C@H](C[C@@H](C)[C@@H]2CC[C@H](C)/C=C(\C)[C@@H](O)[C@@H](OC)C(=O)[C@H](C)C[C@H](C)/C=C/C=C/C=C(\C)[C@H](NS(=O)(=O)C3CC3)C[C@@H]3CC[C@@H](C)[C@@](O)(O3)C(=O)C(=O)N3CCCC[C@H]3C(=O)O2)CC[C@H]1O" )
8.96

Here is the next item to consider.
Quick one: pIC50 of CO[C@@H]1C[C@H](C[C@@H](C)[C@@H]2CC[C@H](C)/C=C(\C)[C@@H](O)[C@@H](OC)C(=O)[C@H](C)C[C@H](C)/C=C/C=C/C=C(\C)C(NC(=O)OC(C)(C)C)C[C@@H]3CC[C@@H](C)[C@@](O)(O3)C(=O)C(=O)N3CCCC[C@H]3C(=O)O2)CC[C@H]1O (stereo partly shown) [Intermediate 8] ?
9.74

---

Quick list: IC50 per entry.
# System: mTORc1 signaling, pS6 (Ser240/244) in MEF TSCl−/− cells
# PROCEDURE SUMMARY: Cell-based assay for rapalog potency (pS6) in MEF TSCl−/− cells
# CONDITION SUMMARY: Mus musculus, 2 hours treatment, average from multiple assays
State just the number; it will be interpreted in nM.

Here is how some compounds turned out for IC50.
# IC50 lookup, item "CO[C@@H]1C[C@H](C[C@@H](C)[C@@H]2CC[C@H](C)/C=C(\C)[C@@H](O)[C@@H](OC)C(=O)[C@H](C)C[C@H](C)/C=C/C=C/C=C(\C)[C@@H](NS(=O)(=O)C3CC3)C[C@@H]3CC[C@@H](C)[C@@](O)(O3)C(=O)C(=O)N3CCCC[C@H]3C(=O)O2)CC[C@H]1O"
0.94

Endpoint output: IC50 of "CO[C@@H]1C[C@H](C[C@@H](C)[C@@H]2CC[C@H](C)/C=C(\C)[C@@H](O)[C@@H](OC)C(=O)[C@H](C)C[C@H](C)/C=C/C=C/C=C(\C)[C@H](NS(C)(=O)=O)C[C@@H]3CC[C@@H](C)[C@@](O)(O3)C(=O)C(=O)N3CCCC[C@H]3C(=O)O2)CC[C@H]1O" . Value?
0.55

---
Entry "CN[C@H]1C[C@@H]2CC[C@@H](C)[C@@](O)(O2)C(=O)C(=O)N2CCCC[C@H]2C(=O)O[C@H]([C@H](C)C[C@@H]2CC[C@@H](O)[C@H](OC)C2)CC[C@H](C)/C=C(\C)[C@@H](O)[C@@H](OC)C(=O)[C@H](C)C[C@H](C)/C=C/C=C/C=C/1C" has what IC50?
0.67

Quick one: IC50 of "CO[C@@H]1C[C@H](C[C@@H](C)[C@@H]2CC[C@H](C)/C=C(\C)[C@@H](O)[C@@H](OC)C(=O)[C@H](C)C[C@H](C)/C=C/C=C/C=C(\C)[C@H](NS(=O)(=O)CCO)C[C@@H]3CC[C@@H](C)[C@@](O)(O3)C(=O)C(=O)N3CCCC[C@H]3C(=O)O2)CC[C@H]1O" ?
1.7
